assayExplanation: Example 9: stability of bilberry extract anthocyanosides, 4 hours at 37° C., pH 7.0, with/without L-cysteine
Format: physicochemical
studyConditions: unprotected, pH 7.0, 37° C., 4 hours
Method: Sample a) 60 mg bilberry extract [37% anthocyanosides] (0.048 mmol anthocyanosides expressed as cyanidin-3-O-glucoside) were added to a 100 ml flask with 60 ml sodium phosphate buffer (5% [w/w], pH=7.0), and stirred until dissolution was complete. A 1 ml sample was taken immediately and acidified with formic acid to pH=1.0 and analyzed by HPLC for the content of anthocyanosides (Fresh Sample). The remaining solution was kept for 4 hours at 37° C. (water bath) with stirring. […]
propertyLabel: % left, Blank (%)

Recorded % left, Blank, per entry:
OC[C@H]1O[C@@H](Oc2cc3c(O)cc(O)cc3[o+]c2-c2ccc(O)c(O)c2)[C@H](O)[C@@H](O)[C@H]1O [Cn-3O-Gal, Cyanidin-3-O-galactoside] | 41.0
OC[C@H]1O[C@@H](Oc2cc3c(O)cc(O)cc3[o+]c2-c2cc(O)c(O)c(O)c2)[C@H](O)[C@@H](O)[C@H]1O [Dp-3O-Gal, Delphinidin 3-o-galactoside] | 7.8

1. OC[C@H]1O[C@@H](Oc2cc3c(O)cc(O)cc3[o+]c2-c2cc(O)c(O)c(O)c2)[C@H](O)[C@@H](O)[C@@H]1O [Dp-3O-Glc, Delphinidin 3-o-glucoside]
2. OC[C@H]1O[C@@H](Oc2cc3c(O)cc(O)cc3[o+]c2-c2ccc(O)c(O)c2)[C@H](O)[C@@H](O)[C@@H]1O [Cn-3O-Glc, Cyanidin 3-o-glucoside]
Query: Between the entries labeled 1 and 2 , whose measured % left, Blank is lower? State your choice using its label.
Response: 1
